Molecular target: T1, EsCas13d, nuclease-dead (Eubacterium siraeum, UniProt B0MS50, R295A;H300A;R849A;H854A)
T1 sequence: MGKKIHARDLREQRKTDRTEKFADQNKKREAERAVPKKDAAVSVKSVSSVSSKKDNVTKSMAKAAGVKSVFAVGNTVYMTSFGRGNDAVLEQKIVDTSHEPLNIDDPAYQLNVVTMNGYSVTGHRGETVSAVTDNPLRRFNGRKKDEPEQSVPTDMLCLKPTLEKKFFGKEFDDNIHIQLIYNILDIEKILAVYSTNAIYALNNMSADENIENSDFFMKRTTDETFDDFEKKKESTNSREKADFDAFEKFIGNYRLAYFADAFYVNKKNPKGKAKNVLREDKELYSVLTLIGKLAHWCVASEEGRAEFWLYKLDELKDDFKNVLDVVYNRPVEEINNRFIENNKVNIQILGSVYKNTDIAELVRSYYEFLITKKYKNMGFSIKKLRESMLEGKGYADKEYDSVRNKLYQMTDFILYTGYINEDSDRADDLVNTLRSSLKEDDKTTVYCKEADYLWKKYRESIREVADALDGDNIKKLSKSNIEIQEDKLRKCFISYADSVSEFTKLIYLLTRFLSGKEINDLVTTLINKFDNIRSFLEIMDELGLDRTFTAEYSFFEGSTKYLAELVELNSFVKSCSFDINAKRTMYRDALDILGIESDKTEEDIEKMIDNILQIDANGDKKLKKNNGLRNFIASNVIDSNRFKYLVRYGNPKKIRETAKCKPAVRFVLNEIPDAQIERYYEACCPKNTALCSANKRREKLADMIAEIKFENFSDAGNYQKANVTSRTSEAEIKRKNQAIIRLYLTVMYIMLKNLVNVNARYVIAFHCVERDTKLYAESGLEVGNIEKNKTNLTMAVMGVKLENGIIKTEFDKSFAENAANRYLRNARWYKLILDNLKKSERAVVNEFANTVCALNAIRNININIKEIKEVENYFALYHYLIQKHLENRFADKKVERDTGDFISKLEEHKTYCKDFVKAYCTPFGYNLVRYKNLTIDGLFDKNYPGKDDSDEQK
Test: crRNA (strand 1, pre-loaded); Mg2+; 40 mM Tris-HCl pH 7.5, 150 mM NaCl, 6 mM MgCl2, 1 mM DTT, 0.1% Tween-20, 0.2 mg/ml BSA; 25 C; 10 min per concentration, then washed
Conditions: tags: His6-TwinStrep-SUMO cleaved; N-terminal SNAP kept (SNAP-Surface 488); label: 3' end held by stalled T7 RNA polymerase
pKd: −log10 of the molar value.
Quick reference: pKd of the listed items.
Measurement type: pKd

| Binder | Measurement type | Endpoint result |
| --- | --- | --- |
| target 2 MT 5'PFS UAU 3'PFS AGC (mixed) RNA 1: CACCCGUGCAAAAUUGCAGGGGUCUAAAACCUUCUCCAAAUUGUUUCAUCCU RNA 2: GGGAAUGGAUCCACAUCUACGAAUUCUAUAGGAUGAAACAAUUUGGAGAAGAGCAGAUCGGAAGAGCACACGU | pKd | 7.68 |
| target 1 insU 3' of 17,insA 3' of 15 (mixed) RNA 1: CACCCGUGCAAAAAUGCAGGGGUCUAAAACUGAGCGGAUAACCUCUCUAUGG RNA 2: GGGAAUGGAUCCACAUCUACGAAUUCGUACCAUAGUAGAAGGUUAUCCGCUCACCGAGAUCGGAAGAGCACACGU | pKd | 7.82 |
| target 1 U8A,C22A (mixed) RNA 1: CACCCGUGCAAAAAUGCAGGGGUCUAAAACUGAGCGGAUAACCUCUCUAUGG RNA 2: GGGAAUGGAUCCACAUCUACGAAUUCGUAACAUAGAGAGGUUAACCGCUCACCGAGAUCGGAAGAGCACACGU | pKd | 7.51 |
| target 1 complement block 3-5 (mixed) RNA 1: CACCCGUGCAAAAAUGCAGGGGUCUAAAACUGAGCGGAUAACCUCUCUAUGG RNA 2: GGGAAUGGAUCCACAUCUACGAAUUCGUACCAUAGAGAGGUUAUCCCGACACCGAGAUCGGAAGAGCACACGU | pKd | 7.98 |
